- testedOn: EGFR (Human), P00533 [T790M/L858R]
- Sequence (P00533 whole entry T790M/L858R, looked up): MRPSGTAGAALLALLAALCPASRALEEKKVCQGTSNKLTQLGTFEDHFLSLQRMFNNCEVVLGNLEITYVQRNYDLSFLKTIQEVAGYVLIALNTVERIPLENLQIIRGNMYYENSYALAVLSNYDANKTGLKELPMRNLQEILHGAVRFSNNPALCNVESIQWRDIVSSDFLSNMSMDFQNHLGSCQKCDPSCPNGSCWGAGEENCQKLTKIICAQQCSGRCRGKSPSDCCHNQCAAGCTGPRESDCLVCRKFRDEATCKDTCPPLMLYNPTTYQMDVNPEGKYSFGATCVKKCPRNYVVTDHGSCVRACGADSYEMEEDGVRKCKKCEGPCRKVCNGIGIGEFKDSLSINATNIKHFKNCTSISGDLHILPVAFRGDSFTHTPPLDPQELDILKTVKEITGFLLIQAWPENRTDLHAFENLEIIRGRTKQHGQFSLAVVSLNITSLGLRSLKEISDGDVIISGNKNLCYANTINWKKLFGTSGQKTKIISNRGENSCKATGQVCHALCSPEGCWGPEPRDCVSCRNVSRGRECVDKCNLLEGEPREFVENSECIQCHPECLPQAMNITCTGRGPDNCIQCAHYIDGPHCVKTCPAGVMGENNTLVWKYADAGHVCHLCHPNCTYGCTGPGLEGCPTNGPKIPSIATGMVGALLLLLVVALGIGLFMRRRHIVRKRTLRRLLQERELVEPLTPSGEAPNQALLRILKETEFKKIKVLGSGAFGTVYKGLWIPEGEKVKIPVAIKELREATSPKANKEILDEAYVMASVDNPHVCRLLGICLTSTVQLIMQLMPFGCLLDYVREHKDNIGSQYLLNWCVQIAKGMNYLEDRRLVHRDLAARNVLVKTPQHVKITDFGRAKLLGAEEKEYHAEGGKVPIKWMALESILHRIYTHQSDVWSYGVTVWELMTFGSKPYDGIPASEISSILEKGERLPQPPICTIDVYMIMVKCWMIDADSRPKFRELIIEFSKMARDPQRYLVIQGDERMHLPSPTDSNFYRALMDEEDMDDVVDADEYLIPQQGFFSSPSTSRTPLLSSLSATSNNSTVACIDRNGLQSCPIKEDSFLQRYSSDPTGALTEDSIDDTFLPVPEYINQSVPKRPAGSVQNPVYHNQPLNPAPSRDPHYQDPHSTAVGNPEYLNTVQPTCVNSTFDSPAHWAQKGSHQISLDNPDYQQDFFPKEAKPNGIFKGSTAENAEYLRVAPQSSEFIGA
- procedureSummary: Cell-Based Assay
- conditionNotes: h1975
quantityName: pIC50
In plain terms, pIC50 is the concentration in mol/L turned into minus its base-10 logarithm.

Per the records, this compound ( "C=CC(=O)Nc1cccc(-n2c(=O)cc(C)c3cnc(Nc4ccc(C5CCNCC5)cc4)nc32)c1" ) has pIC50 equal to 6.74

Per the records, this compound ( "C=CC(=O)Nc1cccc(-n2c(=O)cc(C)c3cnc(Nc4ccc(N5CCC(C(C)(C)O)CC5)cc4)nc32)c1" ) has pIC50 equal to 6.75

Recorded pIC50 (compound "C=CC(=O)N1CC[C@H](Cn2c(=O)cc(C)c3cnc(Nc4ccc(N5CCN(C)CC5)cc4OC)nc32)C1" ): 6.76

Per the record, "C=CC(=O)Nc1cccc(-n2c(=O)cc(C)c3cnc(Nc4ccc(O[C@H]5CCN(C)C5)cc4OC)nc32)c1" has pIC50 of 7.99

// sample "C=CC(=O)Nc1cccc(-n2c(=O)cc(C)c3cnc(Nc4ccc(C5CCN(C)CC5)cc4)nc32)c1" , its pIC50 was 7.96

Short answer for "C=CC(=O)Nc1cccc(-n2c(=O)cc(C)c3cnc(Nc4cnn(C(C)C)c4)nc32)c1" : pIC50 was 7.00

Lab note: "C/C=C/C(=O)Nc1cccc(-n2c(=O)cc(C)c3cnc(Nc4ccc(OCCN(C)C)cc4OC)nc32)c1" gave pIC50 of 6.06

pIC50 reported for this compound "C=CC(=O)Nc1cccc(-n2c(=O)cc(C)c3cnc(Nc4ccc(N(C)CCN(C)C)cc4)nc32)c1" : 8.10

These data points were gathered from the Kinase Knowledgebase extract (Sharma et al. 2016).
